System: HEK-293T
METHOD DESCRIPTION: Multiplex assay against HEK293T
Assay type: toxicity, cell-based
MEASUREMENT CONTEXT: human, 24 h, 10 µM, compound concentration 10 uM, replicate 1
// reported Population Pyknosed Nuclei (%) for each item listed
ENDPOINT LABEL: Population Pyknosed Nuclei (%)

1. NC(=O)c1cccc(-c2cc(Nc3ccc(OC(F)(F)F)cc3)ncn2)c1: 17
2. CCCS(=O)(=O)c1nc(NC2CC2)cc(-c2ccc3c(ccn3C3CC(C)(C)NC(C)(C)C3)c2)n1: 32
3. CNC(=O)c1ccc(Nc2nc(OC3CCCC3)c3c(-c4ccc5nc(C)oc5c4)c[nH]c3n2)c(OC)c1: 17
4. COc1cccc2cc(-c3nc([C@H]4CC[C@H](C(=O)O)CC4)n4ncnc(N)c34)[nH]c12 [OSI-027]: 17

* * *

Tested on: U2OS
METHOD DESCRIPTION: Multiplex assay against U2OS
Format: toxicity, cell-based
MEASUREMENT CONTEXT: human, 24 h, 10 µM, compound concentration 10 uM, replicate 1
// reported Population Normal (%) for each item listed
ENDPOINT LABEL: Population Normal (%)

1. CNC(=O)c1ccc(Nc2nc(OC3CCCC3)c3c(-c4ccc5nc(C)oc5c4)c[nH]c3n2)c(OC)c1: 98%
2. CCn1cc(-c2ccnc3[nH]c(-c4cccc(CN(C)C)c4)cc23)c(-c2ccc(NC(=O)N(C)C)cc2)n1: 83%
3. O=C1N/C(=N/c2ccccc2F)S/C1=C\c1ccc(C(=O)O)cc1: 96%
4. CN1CCN(C(=O)C(C)(C)c2ccc(C(=O)Nc3cn4cc(-c5cc(C(C)(C)C)cc(C(C)(C)C)c5)ccc4n3)cc2)CC1: 97%
5. CCCS(=O)(=O)c1nc(NC2CC2)cc(-c2ccc3c(ccn3C3CC(C)(C)NC(C)(C)C3)c2)n1: 93%
6. COC(=N)c1nc2ccc3ncnc(Nc4ccc(OC)cc4F)c3c2s1: 98%
7. O=C(Nc1ccc(-n2nc(-c3cccnc3)cc2C(F)(F)F)cn1)c1ccc(-c2ccccc2)c(F)c1: 94%
8. COCC(=O)NC/C=C/c1ccc2ncnc(Nc3ccc(Oc4ccc(C)nc4)c(C)c3)c2c1: 91%
9. COc1cc(N2CCN(C)CC2)ccc1Nc1ncc2c(n1)N(C)c1ccccc1C(=O)N2C: 92%
10. CN(C)C(=O)C(CCN1CCC(O)(c2ccc(Cl)cc2)CC1)(c1ccccc1)c1ccccc1.Cl [LOPERAMIDE HYDROCHLORIDE]: 95%
11. Cl.Oc1ccc2c3c1O[C@H]1c4[nH]c5c(c4C[C@@]4(O)[C@@H](C2)N(CC2CC2)CC[C@]314)C[C@@]1(O)[C@H]2Cc3ccc(O)c4c3[C@@]1(CCN2CC1CC1)[C@H]5O4: 96%
12. Cn1nc(C(F)(F)F)cc1-c1cnc(N2CCc3cc(S(=O)(=O)Nc4c(F)cc(Cl)cc4F)cc(N4CCCC4=O)c32)nc1: 98%
13. Cl.O=c1c2cccn2c2ccccc2n1CCCN1CCC(c2ccc(Cl)cc2)CC1: 93%
14. O=C(Nc1ccc(Cl)cc1)Nc1cccc(-c2cccc(N3CCCC3)n2)c1: 78%
15. COc1ccc(-c2ccc3c(N4CCOCC4)nc(N4C[C@@H](C)O[C@@H](C)C4)nc3n2)cc1CO: 64%
16. O=C(Nc1cccnn1)N1CCC(=Cc2cccc(Oc3ccc(C(F)(F)F)cn3)c2)CC1: 96%

* * *

System: U2OS
METHOD DESCRIPTION: Multiplex assay against U2OS
Format: toxicity, cell-based
MEASUREMENT CONTEXT: human, 24 h, 1 µM, compound concentration 1 uM, replicate 1
// reported Population Pyknosed Nuclei (%) for each item listed
ENDPOINT LABEL: Population Pyknosed Nuclei (%)

1) COc1cccc2cc(-c3nc([C@H]4CC[C@H](C(=O)O)CC4)n4ncnc(N)c34)[nH]c12: 8%
2) COc1cc(N2CCN(C)CC2)ccc1Nc1ncc2c(n1)N(C)c1ccccc1C(=O)N2C: 12%
3) CCOC(=O)c1c(C)[nH]c2ccc3c(c12)CN1CCc2cc(OC)ccc2C1O3 (configuration not stated): 12%
4) Cc1cn(-c2cc(NC(=O)c3ccc(C)c(Nc4nccc(-c5cccnc5)n4)c3)cc(C(F)(F)F)c2)cn1: 20%
5) O=C1N/C(=N/c2ccccc2F)S/C1=C\c1ccc(C(=O)O)cc1: 8%
6) O=C(Nc1cccnn1)N1CCC(=Cc2cccc(Oc3ccc(C(F)(F)F)cn3)c2)CC1: 14%
7) CCOc1cc(C(=O)N2CCC(N3CCN(C)CC3)CC2)ccc1Nc1ncc2c(n1)N(C1CCCC1)c1ccccc1C(=O)N2C: 22%
8) CCNc1cc(N[C@H]2CC[C@H](O)CC2)nc(Nc2ccc3c(ccn3Cc3ccccc3)c2)n1: 12%
9) CCc1cccc(CC)c1NC(=O)c1nn(C)c2c1CCc1cnc(Nc3ccc(C(=O)NC4CCN(C)CC4)cc3OC(F)(F)F)nc1-2: 20%
10) CN1C2CCC1CC(OC(c1ccc(F)cc1)c1ccc(F)cc1)C2.Cl (configuration not stated): 7%
11) CCCS(=O)(=O)c1nc(NC2CC2)cc(-c2ccc3c(ccn3C3CC(C)(C)NC(C)(C)C3)c2)n1: 16%
12) CNC(=O)c1ccc(Nc2nc(OC3CCCC3)c3c(-c4ccc5nc(C)oc5c4)c[nH]c3n2)c(OC)c1: 79%
13) COC(=N)c1nc2ccc3ncnc(Nc4ccc(OC)cc4F)c3c2s1: 12%
14) Cn1nc(C(F)(F)F)cc1-c1cnc(N2CCc3cc(S(=O)(=O)Nc4c(F)cc(Cl)cc4F)cc(N4CCCC4=O)c32)nc1: 7%
15) COc1ccc(S(=O)(=O)N(CCO)c2ccccc2CN(C)C/C=C/c2ccc(Cl)cc2)cc1.O=P(O)(O)O: 21%
16) CCCS(=O)(=O)Nc1ccc(F)c(C(=O)c2c[nH]c3ncc(Cl)cc23)c1F: 7%
17) Cl.Oc1ccc2c3c1O[C@H]1c4[nH]c5c(c4C[C@@]4(O)[C@@H](C2)N(CC2CC2)CC[C@]314)C[C@@]1(O)[C@H]2Cc3ccc(O)c4c3[C@@]1(CCN2CC1CC1)[C@H]5O4: 11%

* * *

Test system: Fibroblast
METHOD DESCRIPTION: Multiplex assay against human fibroblast
Assay type: toxicity, cell-based
MEASUREMENT CONTEXT: 48 h, 10 µM, compound concentration 10 uM, replicate 1
ENDPOINT LABEL: Population Pyknosed Nuclei (%)

1) Cc1cn(-c2cc(NC(=O)c3ccc(C)c(Nc4nccc(-c5cccnc5)n4)c3)cc(C(F)(F)F)c2)cn1: 10
2) CCOc1cc2ncc(C#N)c(Nc3ccc(OCc4ccccn4)c(Cl)c3)c2cc1NC(=O)/C=C/CN(C)C: 28
3) COCC(=O)NC/C=C/c1ccc2ncnc(Nc3ccc(Oc4ccc(C)nc4)c(C)c3)c2c1: 20
4) CNc1cc(Oc2cc(C(=O)Nc3cc(N4CCN(C)CC4)cc(C(F)(F)F)c3)ccc2C)ncn1: 30
5) O=C(Cc1ccc(-c2ccc(OCCN3CCOCC3)cc2)cn1)NCc1ccccc1: 26
6) CCN1CCN(Cc2ccc(Nc3ncc(F)c(-c4cc(F)c5nc(C)n(C(C)C)c5c4)n3)nc2)CC1.CS(=O)(=O)O: 9
7) CCCn1c(=O)c2[nH]c(-c3cnn(Cc4cccc(C(F)(F)F)c4)c3)nc2n(CC)c1=O: 11
8) CN(C)C(=O)C(CCN1CCC(O)(c2ccc(Cl)cc2)CC1)(c1ccccc1)c1ccccc1.Cl [LOPERAMIDE HYDROCHLORIDE]: 25

* * *

// reported Population Normal (%) for each item listed
System: Fibroblast
METHOD DESCRIPTION: Multiplex assay against human fibroblast
Type: toxicity, cell-based
MEASUREMENT CONTEXT: 24 h, 10 µM, compound concentration 10 uM, replicate 1
ENDPOINT LABEL: Population Normal (%)

1) CCCS(=O)(=O)Nc1ccc(F)c(C(=O)c2c[nH]c3ncc(Cl)cc23)c1F [PLX-4720]: 81
2) O=C(Nc1cccnn1)N1CCC(=Cc2cccc(Oc3ccc(C(F)(F)F)cn3)c2)CC1: 81
3) CNc1cc(Oc2cc(C(=O)Nc3cc(N4CCN(C)CC4)cc(C(F)(F)F)c3)ccc2C)ncn1: 81
4) COC(=N)c1nc2ccc3ncnc(Nc4ccc(OC)cc4F)c3c2s1: 86
5) CN1C2CCC1CC(OC(c1ccc(F)cc1)c1ccc(F)cc1)C2.Cl (stereo not drawn): 82
6) COc1cc2ncnc(Nc3ccc(F)c(Cl)c3)c2cc1NC(=O)/C=C/CN1CCCCC1 [DACOMITINIB ANHYDROUS]: 81
7) O=C(Nc1ccc(Cl)cc1)Nc1cccc(-c2cccc(N3CCCC3)n2)c1: 68
8) Cl.Oc1ccc2c3c1O[C@H]1c4[nH]c5c(c4C[C@@]4(O)[C@@H](C2)N(CC2CC2)CC[C@]314)C[C@@]1(O)[C@H]2Cc3ccc(O)c4c3[C@@]1(CCN2CC1CC1)[C@H]5O4: 84
